src = the supplement of paper PMC10307832

Tested on: ChaGo-K-1
assay overview: relative viability (nuclei count vs DMSO), 5 days (fraction); higher = more cells survive
condition context: first compound 0.1265 µM
outcome measure: relative viability

Hello, I am looking for reported relative viability with ChaGo-K-1 for Cc1sc2c(c1C)C(c1ccc(Cl)cc1)=N[C@@H](CC(=O)OC(C)(C)C)c1nnc(C)n1-2 [JQ1] + COc1cccc2cc(-c3nc([C@H]4CC[C@H](C(=O)O)CC4)n4ncnc(N)c34)[nH]c12 [OSI-027] (partner 0.5 µM) . Could you help?
0.519

Notebook entry, ChaGo-K-1 assay: relative viability of Cc1sc2c(c1C)C(c1ccc(Cl)cc1)=N[C@@H](CC(=O)OC(C)(C)C)c1nnc(C)n1-2 [JQ1] + CCNC(=O)c1noc(-c2cc(C(C)C)c(O)cc2O)c1-c1ccc(CN2CCOCC2)cc1 [Luminespib] (partner 0.01 µM) = ?
0.503

Look up relative viability with ChaGo-K-1 for this compound: Cc1sc2c(c1C)C(c1ccc(Cl)cc1)=N[C@@H](CC(=O)OC(C)(C)C)c1nnc(C)n1-2 [JQ1] + Nc1ncn([C@H]2C[C@H](O)[C@@H](CO)O2)c(=O)n1 [Decitabine] (partner 2 µM)
0.472

Find the measured relative viability: item Cc1sc2c(c1C)C(c1ccc(Cl)cc1)=N[C@@H](CC(=O)OC(C)(C)C)c1nnc(C)n1-2 [JQ1] + O=C(c1cc(Cc2n[nH]c(=O)c3ccccc23)ccc1F)N1CCN(C(=O)C2CC2)CC1 [Olaparib] (partner 8 µM) , target or system ChaGo-K-1.
0.37

Notebook entry, ChaGo-K-1 assay: relative viability of Cc1sc2c(c1C)C(c1ccc(Cl)cc1)=N[C@@H](CC(=O)OC(C)(C)C)c1nnc(C)n1-2 [JQ1] + Nc1nc2[nH]cc(CCc3ccc(C(=O)N[C@@H](CCC(=O)O)C(=O)O)cc3)c2c(=O)[nH]1 [Pemetrexed] (partner 0.2 µM) = ?
0.256

Lookup: relative viability / ChaGo-K-1 / Cc1sc2c(c1C)C(c1ccc(Cl)cc1)=N[C@@H](CC(=O)OC(C)(C)C)c1nnc(C)n1-2 [JQ1] + CC(=O)Nc1cccc(-n2c(=O)n(C3CC3)c(=O)c3c(Nc4ccc(I)cc4F)n(C)c(=O)c(C)c32)c1 [Trametinib] (partner 0.02 µM)
0.928

====

Would you mind telling me the reported relative viability of each entry?
Tested on: HCC-78
assay overview: relative viability (nuclei count vs DMSO), 5 days (fraction); higher = more cells survive
condition context: first compound 0.253 µM
API doc: respond with a numeric literal and nothing else, no unit.

Query: relative viability; subject: Cc1cnc(-c2cnc(NCCNc3ccc(C#N)cn3)nc2-c2ccc(Cl)cc2Cl)[nH]1 + O=C(CCCCCCC(=O)Nc1ccccc1)NO [Vorinostat] (partner 1 µM)
0.438

Given the entry O=c1[nH]c2ccccc2n1C1CCN(CCCC(c2ccc(F)cc2)c2ccc(F)cc2)CC1 [Pimozide] + Cc1nc(NC(=O)N2CCC[C@H]2C(N)=O)sc1-c1ccnc(C(C)(C)C(F)(F)F)c1 [Alpelisib] (partner 2 µM) , report its measured relative viability.
0.366

Give its relative viability value. Item: Cc1cnc(-c2cnc(NCCNc3ccc(C#N)cn3)nc2-c2ccc(Cl)cc2Cl)[nH]1 + CC(C)C[C@H](NC(=O)[C@H](Cc1ccccc1)NC(=O)c1cnccn1)B(O)O [Bortezomib] (partner 0.002 µM)
0.457

Using the record for Cc1cnc(-c2cnc(NCCNc3ccc(C#N)cn3)nc2-c2ccc(Cl)cc2Cl)[nH]1 + COc1cccc2cc(-c3nc([C@H]4CC[C@H](C(=O)O)CC4)n4ncnc(N)c34)[nH]c12 [OSI-027] (partner 0.5 µM) , report its relative viability.
0.391

Using the record for O=c1[nH]c2ccccc2n1C1CCN(CCCC(c2ccc(F)cc2)c2ccc(F)cc2)CC1 [Pimozide] + C[C@@H](Oc1cc(-c2cnn(C3CCNCC3)c2)cnc1N)c1c(Cl)ccc(F)c1Cl [Crizotinib] (partner 1 µM) , report its relative viability.
0.339

Which measured relative viability value corresponds to Cc1cnc(-c2cnc(NCCNc3ccc(C#N)cn3)nc2-c2ccc(Cl)cc2Cl)[nH]1 + CC1(C)CCC(c2ccc(Cl)cc2)=C(CN2CCN(c3ccc(C(=O)NS(=O)(=O)c4ccc(N[C@H](CCN5CCOCC5)CSc5ccccc5)c(S(=O)(=O)C(F)(F)F)c4)cc3)CC2)C1 [Navitoclax] (partner 0.5 µM) ?
0.661

Suppose we examine the compound Cc1cnc(-c2cnc(NCCNc3ccc(C#N)cn3)nc2-c2ccc(Cl)cc2Cl)[nH]1 + N=C(N)NC(=N)NCCc1ccccc1 [Phenformin] (partner 250 µM) ; what relative viability value has been reported?
0.675

====

For each record, write down the corresponding relative viability.
System: NCI-H1944
assay overview: relative viability (nuclei count vs DMSO), 5 days (fraction); higher = more cells survive
condition context: first compound 0.253 µM

So what does the record say about relative viability for O=c1[nH]c2ccccc2n1C1CCN(CCCC(c2ccc(F)cc2)c2ccc(F)cc2)CC1 [Pimozide] + Cc1cc(Nc2cc(N3CCN(C)CC3)nc(Sc3ccc(NC(=O)C4CC4)cc3)n2)n[nH]1 [Tozasertib] (partner 0.1 µM) ?
0.241

Entry under review: O=c1[nH]c2ccccc2n1C1CCN(CCCC(c2ccc(F)cc2)c2ccc(F)cc2)CC1 [Pimozide] + N=C(N)NC(=N)NCCc1ccccc1 [Phenformin] (partner 250 µM) . Reported relative viability?
0.197

What value of measured relative viability is listed for O=c1[nH]c2ccccc2n1C1CCN(CCCC(c2ccc(F)cc2)c2ccc(F)cc2)CC1 [Pimozide] + Cc1nc(NC(=O)N2CCC[C@H]2C(N)=O)sc1-c1ccnc(C(C)(C)C(F)(F)F)c1 [Alpelisib] (partner 2 µM) ?
0.817

Would you mind telling me what relative viability value was observed for O=c1[nH]c2ccccc2n1C1CCN(CCCC(c2ccc(F)cc2)c2ccc(F)cc2)CC1 [Pimozide] + Cc1nc(Nc2ncc(C(=O)Nc3c(C)cccc3Cl)s2)cc(N2CCN(CCO)CC2)n1 [Dasatinib] (partner 0.075 µM) ?
0.203

Tell me the measured relative viability of O=c1[nH]c2ccccc2n1C1CCN(CCCC(c2ccc(F)cc2)c2ccc(F)cc2)CC1 [Pimozide] + CCNC(=O)c1noc(-c2cc(C(C)C)c(O)cc2O)c1-c1ccc(CN2CCOCC2)cc1 [Luminespib] (partner 0.01 µM) , please.
0.665

====

System: NCI-H23
assay overview: relative viability (nuclei count vs DMSO), 5 days (fraction); higher = more cells survive
condition context: first compound 4 µM
Give measured relative viability for each item. Keep answers brief.
Format: numeric value only, no unit, no commentary.

Record lookup: for NCI-H23, what relative viability belongs to Cc1sc2c(c1C)C(c1ccc(Cl)cc1)=N[C@@H](CC(=O)OC(C)(C)C)c1nnc(C)n1-2 [JQ1] + Cc1nc(Nc2ncc(C(=O)Nc3c(C)cccc3Cl)s2)cc(N2CCN(CCO)CC2)n1 [Dasatinib] (partner 0.075 µM) ?
0.344

Which relative viability is reported with NCI-H23 for this entry: Cc1sc2c(c1C)C(c1ccc(Cl)cc1)=N[C@@H](CC(=O)OC(C)(C)C)c1nnc(C)n1-2 [JQ1] + N=C(N)NC(=N)NCCc1ccccc1 [Phenformin] (partner 250 µM) ?
0.592

Provide the documented relative viability with NCI-H23 as the system for Cc1sc2c(c1C)C(c1ccc(Cl)cc1)=N[C@@H](CC(=O)OC(C)(C)C)c1nnc(C)n1-2 [JQ1] + NC(=O)Nc1cc(-c2cccc(F)c2)sc1C(=O)N[C@H]1CCCNC1 [AZD7762] (partner 0.2 µM)
0.105

====

Answer each item with its documented relative viability.
System: NCI-H2405
assay overview: relative viability (nuclei count vs DMSO), 5 days (fraction); higher = more cells survive
condition context: first compound 0.1581 µM
// response body must contain only the number

Query (molecule): Nc1ccn([C@@H]2O[C@H](CO)[C@@H](O)[C@@H]2O)c(=O)n1 [Cytarabine] + O=C(CCCCCCC(=O)Nc1ccccc1)NO [Vorinostat] (partner 1 µM) ; field requested: relative viability
0.43

Returns the measured relative viability for the input molecule. Input: COc1cc2nccc(Oc3ccc(NC(=O)Nc4cc(C)on4)c(Cl)c3)c2cc1OC [Tivozanib] + Cc1nc(Nc2ncc(C(=O)Nc3c(C)cccc3Cl)s2)cc(N2CCN(CCO)CC2)n1 [Dasatinib] (partner 0.075 µM)
0.266

Given COc1cc2nccc(Oc3ccc(NC(=O)Nc4cc(C)on4)c(Cl)c3)c2cc1OC [Tivozanib] + NC(=O)Nc1cc(-c2cccc(F)c2)sc1C(=O)N[C@H]1CCCNC1 [AZD7762] (partner 0.2 µM) , state its recorded relative viability.
0.905

====

System: HCC-15
assay overview: relative viability (nuclei count vs DMSO), 5 days (fraction); higher = more cells survive
condition context: first compound 0.253 µM
Exercise: for every item that follows, state its recorded relative viability.
// return just the number, without any unit appended

Consider the compound shown here: O=c1[nH]c2ccccc2n1C1CCN(CCCC(c2ccc(F)cc2)c2ccc(F)cc2)CC1 [Pimozide] + CS(=O)(=O)N1CCN(Cc2cc3nc(-c4cccc5[nH]ncc45)nc(N4CCOCC4)c3s2)CC1 [Pictilisib] (partner 1 µM) What is its recorded relative viability?
0.767

Find the recorded relative viability belonging to Cc1cnc(-c2cnc(NCCNc3ccc(C#N)cn3)nc2-c2ccc(Cl)cc2Cl)[nH]1 + CC1(C)CCC(c2ccc(Cl)cc2)=C(CN2CCN(c3ccc(C(=O)NS(=O)(=O)c4ccc(N[C@H](CCN5CCOCC5)CSc5ccccc5)c(S(=O)(=O)C(F)(F)F)c4)cc3)CC2)C1 [Navitoclax] (partner 0.5 µM) and report it.
0.622
